- System: RPMI-8226
- ASSAY DETAILS: Antitumor activity against human RPMI8226 cells assessed as cell growth inhibition at 10 uM incubated for 48 hrs by sulforhodamine B assay
- Type: functional
- REPORTED CONDITIONS: read-out: GI
MEASUREMENT KIND: inhibition of growth at 10 µM (%)
Numbers only; they are read as %.

Reference set, count: 7
{"COMPOUND": "Oc1ccccc1-c1nc2c3ccccc3c3ccccc3c2o1", "inhibition of growth at 10 µM (%)": 24.5}
{"COMPOUND": "Oc1ccccc1-c1nc2c3ccccc3c3ccccc3c2[nH]1", "inhibition of growth at 10 µM (%)": 13.3}
{"COMPOUND": "O=Cc1ccc(-c2nc3c([nH]2)-c2cccc4cccc-3c24)cc1", "inhibition of growth at 10 µM (%)": 22.8}
{"COMPOUND": "O=C1NC(=O)/C(=C/c2ccc(-c3nc4c5ccccc5c5ccccc5c4[nH]3)cc2)S1", "inhibition of growth at 10 µM (%)": 66.1}
{"COMPOUND": "c1cc2ccc3ccc(-c4nc5c6ccccc6c6ccccc6c5[nH]4)c4ccc(c1)c2c34", "inhibition of growth at 10 µM (%)": 10.6}
{"COMPOUND": "O=C1c2ccccc2C(=O)c2c1ccc1[nH]c(-c3ccc(-c4nc5c6ccccc6c6ccccc6c5[nH]4)cc3)nc21", "inhibition of growth at 10 µM (%)": 10.4}
{"COMPOUND": "CCN(CC)c1ccc(-c2nc3c4ccccc4c4ccccc4c3o2)c(O)c1", "inhibition of growth at 10 µM (%)": 44.6}

// switching to the query compound
What the record says about O=c1[nH]cc(F)c(=O)[nH]1 [FLUOROURACIL] : inhibition of growth at 10 µM is 41.4
